Target: T1, human protein C (PC) zymogen (human, UniProt P04070 43-197; P04070 200-461)
T1 construct: Bought
T1 sequence (P04070 43-197, chain 1 of 2): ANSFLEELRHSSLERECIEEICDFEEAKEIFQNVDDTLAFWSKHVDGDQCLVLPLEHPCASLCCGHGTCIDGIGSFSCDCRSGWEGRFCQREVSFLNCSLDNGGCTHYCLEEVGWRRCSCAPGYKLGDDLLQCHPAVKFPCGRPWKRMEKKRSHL
T1 sequence (P04070 200-461, chain 2 of 2): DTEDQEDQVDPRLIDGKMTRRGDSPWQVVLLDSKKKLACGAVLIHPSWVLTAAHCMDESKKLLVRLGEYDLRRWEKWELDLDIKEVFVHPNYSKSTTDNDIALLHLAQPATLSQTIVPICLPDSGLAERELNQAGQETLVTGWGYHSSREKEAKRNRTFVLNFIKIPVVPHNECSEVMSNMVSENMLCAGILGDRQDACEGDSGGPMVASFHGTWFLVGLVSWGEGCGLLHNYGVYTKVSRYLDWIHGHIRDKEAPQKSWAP
Assay: ELISA

| BINDER | binding result |
| --- | --- |
| SR16983-R3-P5-A11 (VHH) VHH: QVQLVESGGGLVQAGGSLGLSCAASGTTFSFVYMGWYRQAPGNQRDLVARISSDGSTNYADSVKGRFTISGDNAKNTVYLQMNNLKPEDTARYYCFYNGHVNKWGQGTQVTVSS | no binding |
| LP10 (SR16983-R3-P3-E06) (VHH, not shown: small tags and cut ends, Llama VHH purified from E. coli periplasm) VHH: QVQLVESGGGLVQAGGSLRLSCAASGTIESINDMGWYRQAPGKQRELVATVSSSGMTNYADSAKGRFTISRDNAKNTMYLQMNSLKPEDTAVYYCKAHISRSYYYDSLGYDYWGQGTQVTVSS | no binding |
